Listing of recorded Ki by entry.
Target: Carboxypeptidase A (Bos taurus, UniProt P00730)
Sequence (P00730 111-419): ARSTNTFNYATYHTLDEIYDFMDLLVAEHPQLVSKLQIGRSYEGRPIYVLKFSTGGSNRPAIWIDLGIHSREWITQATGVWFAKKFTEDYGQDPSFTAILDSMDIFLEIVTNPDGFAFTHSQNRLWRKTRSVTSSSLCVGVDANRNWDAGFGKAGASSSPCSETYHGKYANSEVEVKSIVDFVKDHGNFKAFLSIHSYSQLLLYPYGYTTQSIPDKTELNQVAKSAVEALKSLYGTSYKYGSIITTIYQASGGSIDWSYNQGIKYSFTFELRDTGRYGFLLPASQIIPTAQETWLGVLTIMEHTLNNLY
Assay: Carboxypeptidase A activity assay
Format: biochemical
Conditions: Ki class; compounds tested in 5% DMSO, 12 concentrations
reportedMetric: Ki

> print(dat)
                                    compound   testresult
 1  CC(C)CC(N[C@@H](CN(C)c1ccccc1)C(=O)O)C(=O)O (stereo partly shown)  10 to 50 µM
 2  COc1ccc(C#CC[C@H](N[C@@H](CCc2ccccc2)C(=O)O)C(=O)O)cc1      > 50 µM
 3  CC(C)CC(NCCc1c[nH]cn1)C(=O)O (stereo not shown)      > 50 µM
 4  COc1ccc(C(N[C@@H](CC(C)C)C(=O)O)C(=O)O)cc1 (stereo partly shown)      > 50 µM
 5  CC(C)CC(N[C@@H](Cc1cncn1COCc1ccccc1)C(=O)O)C(=O)O (single isomer, unassigned) [EN]      > 50 µM
 6  CCCC(NC(Cc1cccs1)C(=O)O)C(=O)O (stereo not shown)      > 50 µM
 7  CC(C)CC(N[C@@H](CNc1ccccc1)C(=O)O)C(=O)O (single isomer, unassigned) [FJ]      > 50 µM
 8  CCC(C)C(NC(Cc1cncn1Cc1ccccc1)C(=O)O)C(=O)O (single isomer, unassigned) [GC]  10 to 50 µM
 9  CC(C)CC(N[C@H](Cc1c[nH]cn1)C(=O)O)C(=O)O (stereo partly shown) [BB]      > 50 µM
10  CC(C)C[C@@H](C(=O)O)N(C)C(CCc1ccccc1)C(=O)O (stereo partly shown)      > 50 µM

----------
Listing of recorded pKi by entry.
target: ACE-2 (Homo sapiens, UniProt Q9BYF1); construct: a stop codon inserted after the serine immediately preceding the transmembrane domain; made in house; host or cells: CHO K1 cells (transient transfection, purified from conditioned medium); test: ACE-2 Competitive Substrate Assay (ACS Assay); format: biochemical; conditions: Ki class per key; compounds tested in 5% DMSO, 12 compound concentrations, 25° C.; Ki=Kiapp/(1+[S]/Km); read-out: Human ACE-2 Activity
Sequence (Q9BYF1 18-740 limits assumed): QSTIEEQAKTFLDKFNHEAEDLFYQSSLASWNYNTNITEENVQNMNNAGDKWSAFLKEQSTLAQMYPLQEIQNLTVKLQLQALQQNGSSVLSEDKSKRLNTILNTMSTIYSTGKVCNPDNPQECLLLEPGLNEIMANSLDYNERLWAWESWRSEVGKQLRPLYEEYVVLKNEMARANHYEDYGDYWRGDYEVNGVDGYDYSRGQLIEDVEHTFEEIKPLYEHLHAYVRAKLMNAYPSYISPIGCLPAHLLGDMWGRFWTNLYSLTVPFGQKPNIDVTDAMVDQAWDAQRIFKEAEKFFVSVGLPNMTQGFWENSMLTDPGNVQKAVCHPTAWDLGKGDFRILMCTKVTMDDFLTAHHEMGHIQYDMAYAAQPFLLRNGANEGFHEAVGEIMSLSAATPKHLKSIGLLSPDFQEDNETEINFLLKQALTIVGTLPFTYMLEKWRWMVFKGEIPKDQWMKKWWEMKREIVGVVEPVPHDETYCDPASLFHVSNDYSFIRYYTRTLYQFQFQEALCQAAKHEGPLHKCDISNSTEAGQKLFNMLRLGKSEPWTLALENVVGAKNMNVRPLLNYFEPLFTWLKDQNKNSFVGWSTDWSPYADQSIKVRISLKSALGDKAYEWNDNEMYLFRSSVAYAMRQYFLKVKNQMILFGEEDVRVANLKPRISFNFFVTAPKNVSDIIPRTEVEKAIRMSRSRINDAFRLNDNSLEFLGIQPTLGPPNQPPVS
pKi: −log10 of the molar value.
reportedMetric: pKi

> print(dat)
                                    molecule    testresult
 1  CC(C)C[C@H](N[C@@H](Cc1ccc(NC(=O)C2CCCC2)cc1)C(=O)O)C(=O)O [QR]  6.30 to 7.00
 2  CC(C)C[C@H](N[C@@H](CN1C(=O)CN(Cc2cc(F)cc(F)c2)C1=O)C(=O)O)C(=O)O [PW]        > 7.00
 3  CC(C)C[C@H](N[C@@H](Cc1ccccc1OCc1cccc(Cl)c1)C(=O)O)C(=O)O [QO]        < 6.30
 4  CC(C)C[C@H](N[C@@H](Cn1ccn(CCc2ccccc2F)c1=O)C(=O)O)C(=O)O [PP]        < 6.30
 5  Cc1ccnc(-c2ccc(C[C@H](N[C@@H](CC(C)C)C(=O)O)C(=O)O)cc2)c1 [QA]        > 7.00
 6  CC(C)C[C@H](N[C@@H](Cc1ccc([N+](=O)O)cc1)C(=O)O)C(=O)O [RA]  6.30 to 7.00
 7  CC(C)C[C@H](N[C@@H](CN1C(=O)CN(Cc2ccc(C(F)(F)F)cc2C(F)(F)F)C1=O)C(=O)O)C(=O)O [PY]        < 6.30
 8  CC(C)C[C@H](N[C@@H](Cc1ccc(C(=O)OC(C)(C)C)cc1)C(=O)O)C(=O)O [PU]        > 7.00
 9  CC(C)C[C@H](N[C@@H](Cc1ccc(-c2ccc(F)cc2)cc1)C(=O)O)C(=O)O [OY]        > 7.00
10  CC(C)C[C@H](N[C@@H](Cc1ccc(Oc2ccc(F)cc2)cc1)C(=O)O)C(=O)O [QP]        > 7.00
11  CC(C)C[C@H](N[C@@H](Cc1ccc(OCc2csc3ccccc23)cc1)C(=O)O)C(=O)O [QX]        > 7.00
12  CC(C)C[C@H](N[C@@H](CC#Cc1cc(Cl)cc(Cl)c1)C(=O)O)C(=O)O [PR]        < 6.30
13  Cc1ccc(-n2ccc(C[C@H](N[C@@H](CC(C)C)C(=O)O)C(=O)O)n2)cc1 [QQ]        > 7.00
14  COc1ccccc1C(=O)Nc1ccc(C[C@H](N[C@@H](CC(C)C)C(=O)O)C(=O)O)cc1 [RB]        > 7.00
15  CC(C)C[C@H](N[C@@H](Cc1cccc(Cc2ccccc2)c1)C(=O)O)C(=O)O [PB]        < 6.30
16  CC(C)C[C@H](N[C@@H](Cc1ccc(Oc2ccccc2)cc1)C(=O)O)C(=O)O [QJ]  6.30 to 7.00
17  CC(C)C[C@H](N[C@@H](Cc1ccc(C(=O)C(F)(F)F)n1CCC1CCCCC1)C(=O)O)C(=O)O [QZ]        > 7.00
18  CC(C)C[C@H](N[C@@H](Cc1cccc(Cc2cccc(Cl)c2)c1)C(=O)O)C(=O)O [PF]  6.30 to 7.00
